Assign cytotoxicity at 10 µM to each entry below.
# measurement-notes: Toxicity liver stage against HepG2, at 10uM
# Type: cell-based
# Set-up: test concentration 10 uM, cell line HepG2-A16-CD81EGFP
# conditions: human, HepG2-A16-CD81EGFP cells; read-out: INHIBITION
Numbers only, in %.

1) CCc1cnc(N)nc1N(C)CCc1cnn(C)c1	55.9
2) O=C(c1cscn1)N1CC[C@H]2C[C@H](c3nnc(C4CC4)o3)O[C@@H]2C1	-111
3) CC(NC(=O)NCCCOC1CCCCC1)c1nncn1C (stereo not given)	-7.47
4) COc1cccc2[nH]c(C(=O)N3CCNCC3C(N)=O)cc12 (stereo not given)	4.57

Need cytotoxicity at 10 µM of Cn1nc(COCC2CC2)c2c1CCN(Cc1cccs1)C2 , thanks.
-101

Origin of values: ChEMBL document CHEMBL4513216
